The following molecules are listed with their measured MIC Bacillus subtilis ATCC 6633 values.
system: Bacillus subtilis ATCC 6633; assay type: cell-based
Non-standard residues stand in square brackets, D forms with d. Residues, ends and D or L forms follow the SMILES beside them. d2Nal = N[C@H](Cc1ccc2ccccc2c1)C(=O)O
RESULT_TYPE: MIC Bacillus subtilis ATCC 6633 (µg/mL)

MOLECULE	RESULT_TYPE	UNIT_DESCRIPTOR	TEST_VALUE
CC(=O)N[C@H](CCCNC(=N)N)C(=O)N[C@H](CCCCN)C(=O)N[C@@H](C(=O)N[C@@H](C(=O)N[C@H](Cc1ccc2ccccc2c1)C(=O)N[C@H](CCCNC(=N)N)C(=O)N[C@@H](C(=O)N[C@H](CCCCN)C(=O)N[C@H](Cc1ccc2ccccc2c1)C(=O)N[C@H](CCCNC(=N)N)C(=O)N[C@H](CCCCN)C(N)=O)C(C)C)C(C)C)C(C)C [LV-16] (Ac-[dR][dK][dV][dV][d2Nal][dR][dV][dK][d2Nal][dR][dK]-NH2)	MIC Bacillus subtilis ATCC 6633	µg/mL	4
CC(=O)N[C@H](CCCNC(=N)N)C(=O)N[C@H](CCCNC(=N)N)C(=O)N[C@H](CC(C)C)C(=O)N[C@H](CC(C)C)C(=O)N[C@H](Cc1ccc2ccccc2c1)C(=O)N[C@H](CCCNC(=N)N)C(=O)N[C@H](CC(C)C)C(=O)N[C@H](CCCCN)C(=O)N[C@H](Cc1ccc2ccccc2c1)C(=O)N[C@H](CCCNC(=N)N)C(=O)N[C@H](CCCCN)C(N)=O [LV-21] (Ac-[dR][dR][dL][dL][d2Nal][dR][dL][dK][d2Nal][dR][dK]-NH2)	MIC Bacillus subtilis ATCC 6633	µg/mL	2

All values here come from patent US20250304620A1.
